- MEASURED ON: human Y4 receptor (human, UniProt P50391 1-375)
- Sequence (P50391 whole entry): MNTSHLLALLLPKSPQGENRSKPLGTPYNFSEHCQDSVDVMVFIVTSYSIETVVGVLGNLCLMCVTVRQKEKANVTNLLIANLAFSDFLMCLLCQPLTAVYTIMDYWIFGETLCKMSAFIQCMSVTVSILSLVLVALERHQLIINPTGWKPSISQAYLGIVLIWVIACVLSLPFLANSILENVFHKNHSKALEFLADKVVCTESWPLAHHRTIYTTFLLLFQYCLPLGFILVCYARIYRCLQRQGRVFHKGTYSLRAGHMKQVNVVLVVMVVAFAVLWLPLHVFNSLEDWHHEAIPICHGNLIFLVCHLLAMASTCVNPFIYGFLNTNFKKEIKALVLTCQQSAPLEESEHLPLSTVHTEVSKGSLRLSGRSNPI
- EXPERIMENT SUMMARY: 125I-PP displacement
Consider the following binders and their measured IC50 readings.
Give the figure together with its unit, number first.

| BINDER | IC50 |
| --- | --- |
| GAPLEPEAPGDNATPEQMAKYYSELRRYINKLTRPRY [4060691] | 0.153 nM |
| GAPLEPEYPGDNATPEQMAKYAAALRRYIDKLTRPRY [4060896] | 0.114 nM |
| GAPLEPEYPGDDATPQQKARYAAELRRYINKLTRPRY [4060684] | 0.076 nM |
| PAPLEPKAPGDNATPEQMAKYYSELRRYIDKLTRPRY [4060680] | 0.109 nM |
| PLEPVYPGDNATPEQLAKYAAELRRYIDKLTRPRY [4060899] | 0.153 nM |

Asked: Requested read-out: IC50. Entry: GAPLEPEYPGDNATPEEMARYAAALRRYINKLTRPRY [4060359]
Given back: 0.099 nM

Asked: Would you kindly share the measured IC50 for PAPLEPKYPGDNATPEQMAKYYSELRRYIDRLTRPRY [4060603] ?
Given back: 0.102 nM

Asked: What measured IC50 goes with GAPLEPVYPGDNATPEQMARYYSELRRYIDKLTRPRY [4060604] ?
Given back: 0.121 nM

Asked: Need IC50, item PAPLEPTYPGDDATPEQLAKYYSELRRYINKLTRPRY [4060314]
Given back: 0.084 nM

Asked: Requested field: IC50. Item: AAPLEPEYPGDDATPQQKARYAAELRRYINKLTRPRY [4060686]
Given back: 0.055 nM

Asked: What value of measured IC50 is listed for GAPLEPEYPGDDATPEQKARYAAALRRYINHLTRPRY [4060312] ?
Given back: 0.101 nM

Asked: // lookup IC50 for PAPLEPVYPGDNATPEQKAKYAAELRRYIDKLTRPRY [4061085]
Given back: 0.159 nM

Asked: Fill in: IC50 of GAPLEPTYPGDNATPEQKAKYAAELRRYIDKLTRPRY [4061080] is ___
Given back: 0.105 nM

The measured values listed here are drawn from patent US20100279930A1.
